experimental-details: Efflux ratio of apparent permeability in human Caco2 cells at 2 uM after 2 hrs by LC/MS/MS analysis
Format: ADME, cell-based
measurement-conditions: Caco-2
measured-endpoint: efflux ratio at 2 h, 2 µM

Previously resolved entries follow.
cpd-smiles | measured-endpoint | recorded-value
CCn1c2ccccc2c2cc(-c3nc4cc(-c5noc(=O)[nH]5)ccc4n3CCOC)ccc21 | efflux ratio at 2 h, 2 µM | 3.3
CCn1c2ccccc2c2cc(-c3nc4c(C)c(C(=O)O)ccc4n3CCOC)ccc21 | efflux ratio at 2 h, 2 µM | 1.1

[1] CCn1c2ccccc2c2cc(-c3nc4cc(-c5n[nH]c(=O)o5)ccc4n3CCOC)ccc21
[2] CCn1c2ccc(Cl)cc2c2cc(-c3nc4c(C)c(C(=O)O)ccc4n3CCOC)ccc21
Q: Which record would sort first by descending efflux ratio at 2 h, 2 µM, 1 or 2 ? # reply format: chosen label
A: 1
(1: 0.9, 2: 0.5)

FYI, the data here is from ChEMBL document CHEMBL4480399.
